The origin of these recorded values is patent US10464896B2.

Test system: E. coli ATCC25922
EXPERIMENT: Antibacterial activity in combination with minocycline (growth inhibition)
Type: cell-based
TEST_PARAMETERS: Escherichia coli, ATCC25922, compound at 25 μM; minocycline 0.25 μg/mL; OD625 23 h minus 1 h; read-out: residual growth of E. coli ATCC25922 (% of uninhibited control) with minocycline
Listed next: entries and their corresponding activity at 25 µM.

In the examples that follow, each entry is paired with its recorded activity at 25 µM.
>>> df
                                   compound  measured_result
0   Clc1ccc(OCCOc2ccc(CNCC3CNC3)cc2)c(Br)c1            ≤ 10%
1        Clc1ccc(COc2cccc(CCNCC3CNC3)c2)cc1            ≤ 10%
2  Clc1ccc(/C=C/c2cc(Cl)ccc2OCCNCC2CCNC2)c(Br)c1 (stereo not drawn)            ≤ 10%
3  C=CCOc1cc(/C=C/c2ccc(Cl)cc2Br)cc(C(=O)NCCNC(=O)C2CNC2)c1            ≤ 10%
4  FC(F)(F)c1cc(CNCC2CNC2)cc(OCc2ccc(Cl)cc2Br)c1            ≤ 10%
5  CC(C)(C)c1ccc(COc2cccc(CNCC3CCNC3)c2)cc1 (stereo not drawn)            ≤ 10%
6   Clc1ccc(OCc2cccc(CCCNCC3CNC3)c2)c(Br)c1            ≤ 10%
7  CC(C)Oc1cc(C[N+](C)(C)CC2CCNC2)cc(OCc2ccc(Cl)cc2Br)c1 (stereo not drawn)            ≤ 10%

**Q:** Value lookup for activity at 25 µM; key = Clc1cc(Cl)cc(COc2cccc(CNCC3CNC3)c2)c1
**A:** ≤ 10%

* * *

Test system: E. coli ATCC25922
EXPERIMENT: Antibacterial activity in combination with minocycline (growth inhibition)
Type: cell-based
TEST_PARAMETERS: Escherichia coli, ATCC25922, compound at 25 μM; minocycline 0.25 μg/mL; OD625 23 h minus 1 h; read-out: residual growth of E. coli ATCC25922 (% of uninhibited control) with minocycline
MEASURE_NAME: activity at 25 µM

In the examples that follow, each entry is paired with its recorded activity at 25 µM.
                                   compound  measured_result
0  Clc1ccc(/C=C/c2ccc(OCCc3c[nH]cn3)c(CNCC3CCNC3)c2)c(Br)c1 (stereo not shown) [Example 464]            ≤ 10%
1  C=CCOc1cc(CNCC2CNC2)cc(CSc2ccc(Cl)cc2C(F)(F)F)c1 [Example 183]            ≤ 10%
2  C=CCOc1cc(CNCC2CNC2)cc(C(=O)NCc2ccc(Cl)cc2Br)c1 [Example 370]            ≤ 10%

Okay, now this compound:
**Q:** Short answer please: activity at 25 µM, E. coli ATCC25922, entry Clc1ccc(/C=C/c2cccc(OCCCNCC3CNC3)c2)c(Br)c1 [Example 201]
**A:** ≤ 10%
